Biological target: PI3Kγ (p110γ) Recombinant Human Protein (Homo sapiens (Human), UniProt P48736)
Sequence (P48736 whole entry): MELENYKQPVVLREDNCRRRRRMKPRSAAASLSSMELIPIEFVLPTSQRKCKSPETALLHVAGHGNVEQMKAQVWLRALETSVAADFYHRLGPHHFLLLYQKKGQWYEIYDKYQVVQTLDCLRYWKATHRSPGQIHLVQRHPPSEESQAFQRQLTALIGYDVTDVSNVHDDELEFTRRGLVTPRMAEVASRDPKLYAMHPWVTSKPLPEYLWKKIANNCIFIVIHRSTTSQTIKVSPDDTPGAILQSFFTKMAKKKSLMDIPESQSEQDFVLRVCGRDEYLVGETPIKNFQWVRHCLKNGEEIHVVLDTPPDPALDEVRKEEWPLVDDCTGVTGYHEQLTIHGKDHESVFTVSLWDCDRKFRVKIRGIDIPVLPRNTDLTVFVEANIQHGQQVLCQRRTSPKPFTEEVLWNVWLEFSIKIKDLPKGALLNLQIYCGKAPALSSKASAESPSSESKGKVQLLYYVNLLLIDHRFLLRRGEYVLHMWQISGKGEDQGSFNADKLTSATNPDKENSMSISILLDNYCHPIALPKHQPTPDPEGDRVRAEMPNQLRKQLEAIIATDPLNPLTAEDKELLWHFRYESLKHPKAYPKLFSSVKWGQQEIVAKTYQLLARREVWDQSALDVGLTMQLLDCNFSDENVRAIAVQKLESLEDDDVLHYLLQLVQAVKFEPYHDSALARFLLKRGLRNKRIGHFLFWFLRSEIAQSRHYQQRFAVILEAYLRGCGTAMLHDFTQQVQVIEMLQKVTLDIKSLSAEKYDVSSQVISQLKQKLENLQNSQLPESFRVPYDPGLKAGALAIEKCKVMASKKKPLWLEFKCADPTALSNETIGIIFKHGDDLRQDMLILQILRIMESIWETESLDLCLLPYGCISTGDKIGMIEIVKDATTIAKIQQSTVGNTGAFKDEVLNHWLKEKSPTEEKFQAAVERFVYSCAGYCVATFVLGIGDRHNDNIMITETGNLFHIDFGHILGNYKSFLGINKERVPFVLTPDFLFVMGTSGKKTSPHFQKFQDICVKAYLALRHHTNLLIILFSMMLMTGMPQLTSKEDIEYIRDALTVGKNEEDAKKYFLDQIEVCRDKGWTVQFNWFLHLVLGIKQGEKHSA
Assay: PI3K-γ Scintillation Proximity Assay
Conditions: read-out: PI3K-gamma SPA IC50
Counter-ions that a name gives are not always drawn.
Property measured: IC50

Compound	Assay result
Cc1nc(-c2cc(C3=CCN(Cc4ccccc4)C3)ccn2)[nH]c1C [Example 228, trifluoroacetate salt]	> 0.5 µM
O=C(O)CCn1cc(-c2ccnc(-c3ncc(-c4ccccc4)[nH]3)c2)cn1 [Example 57, trifluoroacetate salt]	≤ 0.5 µM
Cc1nc(-c2cc(-c3cncc(NCC4CCOC4)c3)ccn2)[nH]c1C (racemic) [Example 145B]	≤ 0.05 µM
COc1cncc(-c2ccnc(-c3nnc[nH]3)c2)c1	> 0.5 µM
CS(=O)(=O)c1cncc(-c2ccnc(-c3nc(C4CCCCC4)c(N)[nH]3)c2)c1 [Example 120, Trifluoroacetate Salt]	≤ 0.1 µM
Cc1[nH]c(-c2cc(-c3cncc(N4CCOCC4)c3)ccn2)nc1C(=O)NC1CCSCC1 [Example 281, trifluoroacetate salt]	≤ 0.05 µM
Cc1nc(-c2cc(C3=CCCN(S(=O)(=O)c4ccc(Cl)cc4)C3)ccn2)[nH]c1C [Example 221, trifluoroacetate salt]	≤ 0.1 µM
N#Cc1ccc(Cn2cc(-c3ccnc(-c4ncc(-c5ccccc5)[nH]4)c3)cn2)cc1 [Example 43, trifluoroacetate salt]	≤ 0.5 µM
Cc1nc(-c2cc(C3CCCN(S(=O)(=O)c4ccccc4)C3)ccn2)[nH]c1C (racemic) [Example 215, Trifluoroacetate Salt]	≤ 0.5 µM
Cc1nc(-c2cc(C3=CCN(Cc4ccc(Cl)cc4)C3)ccn2)[nH]c1C [Example 229, trifluoroacetate salt]	> 0.5 µM
COc1cncc(-c2ccnc(-c3nc4c([nH]3)CCC4)c2)c1	≤ 0.5 µM
COC1CN(C(=O)c2nc(-c3cc(-c4cncc(N5CCOCC5)c4)ccn3)[nH]c2C)C1	≤ 0.1 µM
COCCNC(=O)c1cncc(-c2ccnc(-c3nc(C)c(C)[nH]3)c2)c1 [Example 166, trifluoroacetate salt]	≤ 0.1 µM
COC(=O)c1ccccc1Cn1cc(-c2ccnc(-c3ncc(-c4ccccc4)[nH]3)c2)cn1 [Example 30, trifluoroacetate salt]	> 0.5 µM
O=C(Nc1cncc(-c2ccnc(-c3ncc(-c4ccccc4)[nH]3)c2)c1)c1ccccc1Cl	≤ 0.5 µM

====

Target: PI3Kδ (p110δ/p85α) Recombinant Human Protein (Homo sapiens (Human))
Sequence (O00329 whole entry): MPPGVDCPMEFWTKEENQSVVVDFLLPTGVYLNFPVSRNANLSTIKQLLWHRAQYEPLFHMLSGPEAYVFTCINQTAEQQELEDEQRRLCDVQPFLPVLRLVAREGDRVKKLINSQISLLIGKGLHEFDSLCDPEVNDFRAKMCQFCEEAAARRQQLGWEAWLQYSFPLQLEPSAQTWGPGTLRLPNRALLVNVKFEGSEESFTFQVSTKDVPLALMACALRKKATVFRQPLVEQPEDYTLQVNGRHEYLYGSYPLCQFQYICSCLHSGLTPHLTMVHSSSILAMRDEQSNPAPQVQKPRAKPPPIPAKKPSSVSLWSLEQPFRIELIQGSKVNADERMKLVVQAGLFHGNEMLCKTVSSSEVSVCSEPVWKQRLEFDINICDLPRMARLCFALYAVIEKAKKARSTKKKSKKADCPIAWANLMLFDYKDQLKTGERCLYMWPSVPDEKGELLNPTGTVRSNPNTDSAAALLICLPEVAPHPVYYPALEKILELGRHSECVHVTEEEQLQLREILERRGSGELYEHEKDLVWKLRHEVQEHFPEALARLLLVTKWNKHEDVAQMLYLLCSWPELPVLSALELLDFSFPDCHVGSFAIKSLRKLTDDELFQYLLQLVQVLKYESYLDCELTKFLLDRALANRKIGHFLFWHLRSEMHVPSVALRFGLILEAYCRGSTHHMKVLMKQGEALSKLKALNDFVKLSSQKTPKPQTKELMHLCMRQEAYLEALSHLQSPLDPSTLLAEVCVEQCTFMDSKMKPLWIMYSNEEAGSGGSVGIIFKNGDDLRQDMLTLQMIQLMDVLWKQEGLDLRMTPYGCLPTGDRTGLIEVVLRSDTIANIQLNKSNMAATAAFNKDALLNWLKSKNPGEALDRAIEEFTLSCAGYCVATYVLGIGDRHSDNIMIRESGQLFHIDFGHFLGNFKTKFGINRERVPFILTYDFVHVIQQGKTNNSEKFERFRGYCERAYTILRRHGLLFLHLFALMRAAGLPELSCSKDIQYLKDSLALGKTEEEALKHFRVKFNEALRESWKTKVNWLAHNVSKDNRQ
Sequence (P27986 whole entry partner): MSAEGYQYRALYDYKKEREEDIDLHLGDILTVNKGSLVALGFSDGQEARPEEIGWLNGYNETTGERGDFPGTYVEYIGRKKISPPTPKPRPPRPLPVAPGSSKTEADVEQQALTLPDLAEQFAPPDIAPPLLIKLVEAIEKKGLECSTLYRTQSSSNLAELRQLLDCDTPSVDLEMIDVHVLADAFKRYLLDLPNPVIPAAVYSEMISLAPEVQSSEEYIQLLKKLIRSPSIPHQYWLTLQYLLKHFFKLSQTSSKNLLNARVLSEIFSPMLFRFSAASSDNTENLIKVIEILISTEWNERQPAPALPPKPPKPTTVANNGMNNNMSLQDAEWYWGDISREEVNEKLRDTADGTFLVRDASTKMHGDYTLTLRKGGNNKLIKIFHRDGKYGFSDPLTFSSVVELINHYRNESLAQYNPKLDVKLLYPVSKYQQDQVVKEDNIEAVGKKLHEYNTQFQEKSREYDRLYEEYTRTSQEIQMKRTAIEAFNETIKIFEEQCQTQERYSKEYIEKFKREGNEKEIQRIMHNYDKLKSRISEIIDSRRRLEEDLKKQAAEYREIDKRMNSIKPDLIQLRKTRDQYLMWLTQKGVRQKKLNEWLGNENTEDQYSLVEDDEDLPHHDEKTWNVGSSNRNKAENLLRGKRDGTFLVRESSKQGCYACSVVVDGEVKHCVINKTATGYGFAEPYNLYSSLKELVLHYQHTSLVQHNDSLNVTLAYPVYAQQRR
Assay: PI3Kδ Scintillation Proximity Assay
Details: read-out: PI3K-delta SPA IC50
Description: Example C. PI3Kδ Scintillation Proximity Assay [γ-^33P]ATP (10 mCi/mL) and Wheat Germ Agglutinin (WGA) YSi SPA Scintillation Beads was purchased from Perkin-Elmer (Waltham, Mass.). Lipid kinase substrate, D-myo-Phosphatidylinositol 4,5-bisphosphate (PtdIns(4,5)P2)D (+)-sn-1,2-di-O-octanoylglyceryl, 3-O-phospho linked (PIP2), CAS 204858-53-7, was purchased from Echelon Biosciences (Salt Lake City, Utah). PI3Kδ (p110δ/p85α) Recombinant Human Protein was purchased from Eurofins (St Charles, Mo.). […]
pIC50: −log10 of the molar value. Where a name gives a salt, the structure may show the parent alone.

Molecule	pIC50
O=C(Nc1cncc(-c2ccnc(-c3ncc(-c4ccccc4)[nH]3)c2)c1)c1ccccc1 [Example 132]	≥ 6.30
N#Cc1cccc(C(=O)Nc2cncc(-c3ccnc(-c4ncc(-c5ccccc5)[nH]4)c3)c2)c1 [Example 136]	≥ 6.30
Cc1nc(-c2cc(-c3cncc(C(=O)N4CCC(c5cnccn5)C4)c3)ccn2)[nH]c1C (centres unmarked) [Example 197, trifluoroacetate salt]	≥ 7.30
Cc1nc(-c2cc(-c3cncc(C(=O)N4CC5(CCN(C)C5=O)C4)c3)ccn2)[nH]c1C [Example 171, trifluoroacetate salt]	≥ 7.00
O=C(Cn1cc(-c2ccnc(-c3ncc(-c4ccccc4)[nH]3)c2)cn1)N1CCCC1 [Example 50, trifluoroacetate salt]	< 6.30
Cc1nc(-c2cc(-c3cncc(C(=O)NCCC4CCOCC4)c3)ccn2)[nH]c1C [Example 164, trifluoroacetate salt]	≥ 7.30
Cc1nc(-c2cc(-c3cncc(C(=O)N4CCC4)c3)ccn2)[nH]c1C [Example 191, trifluoroacetate salt]	≥ 7.30
Cc1[nH]c(-c2cc(-c3cncc(N4CCOCC4)c3)ccn2)nc1C(=O)NC1CCOCC1 [Example 269, trifluoroacetate salt]	≥ 7.30
Cc1[nH]c(-c2cc(-c3cncc(N4CCOCC4)c3)ccn2)nc1C(=O)NC1Cc2ccccc2C1 [Example 282, trifluoroacetate salt]	≥ 7.30
COc1cncc(-c2ccnc(-c3ncc(C)[nH]3)c2)c1 [Example 77]	≥ 6.30
CS(=O)(=O)c1cncc(-c2ccnc(-c3ncc(-c4ccccn4)[nH]3)c2)c1 [Example 118]	≥ 7.30
O=S(=O)(c1ccccc1)N1CCC(c2c[nH]c(-c3cc(-c4cnn(Cc5ccc(Cl)cc5)c4)ccn3)n2)C1 (centres unmarked) [Example 302, trifluoroacetate salt]	≥ 6.30
Cc1nc(-c2cc(-c3cncc(C4=CCNC4)c3)ccn2)[nH]c1C [Example 236]	< 6.30
Cc1nc(-c2cc(-c3cncc(C(=O)N[C@@H]4CCOC4)c3)ccn2)[nH]c1C [Example 176, trifluoroacetate salt]	≥ 6.30

====

pIC50 values by entry
Target: PI3Kγ (p110γ) Recombinant Human Protein (Homo sapiens (Human), UniProt P48736)
Assay: PI3K-γ Scintillation Proximity Assay
Type: biochemical
Conditions: read-out: PI3K-gamma SPA IC50
pIC50: −log10 of the molar value. Where a name gives a salt, the structure may show the parent alone.

Compound	Experimental system	pIC50
Cc1nc(-c2cc(-c3cncc(C(=O)N4CCCC4)c3)ccn2)[nH]c1C [Example 151]	PI3Kγ (p110γ) Recombinant Human Protein (Homo sapiens (Human), UniProt P48736)	≥ 7.30
Cc1nc(-c2cc(-c3cncc(C(=O)N4CCC(O)(Cc5ccccc5)CC4)c3)ccn2)[nH]c1C [Example 196, trifluoroacetate salt]	PI3Kγ (p110γ) Recombinant Human Protein (Homo sapiens (Human), UniProt P48736)	≥ 6.30
O=C(Cn1cc(-c2ccnc(-c3ncc(-c4ccccc4)[nH]3)c2)cn1)N1CCCC1 [Example 50, trifluoroacetate salt]	PI3Kγ (p110γ) Recombinant Human Protein (Homo sapiens (Human), UniProt P48736)	< 6.30
Cc1[nH]c(-c2cc(-c3cncc(S(C)(=O)=O)c3)ccn2)nc1C(=O)NC1CCCC1 [Example 243]	PI3Kγ (p110γ) Recombinant Human Protein (Homo sapiens (Human), UniProt P48736)	≥ 7.30
CCNc1ncc(-c2cc(-c3cncc(OC)c3)ccn2)[nH]1 [Example 62, Trifluoroacetate Salt]	PI3Kγ (p110γ) Recombinant Human Protein (Homo sapiens (Human), UniProt P48736)	≥ 7.00
COc1cncc(-c2ccnc(-c3nnc(C)[nH]3)c2)c1 [Example 73]	PI3Kγ (p110γ) Recombinant Human Protein (Homo sapiens (Human), UniProt P48736)	< 6.30
CCN(C)C(=O)c1cncc(-c2ccnc(-c3nc(C)c(C)[nH]3)c2)c1 [Example 198, trifluoroacetate salt]	PI3Kγ (p110γ) Recombinant Human Protein (Homo sapiens (Human), UniProt P48736)	≥ 7.30
CCN(C)C(=O)c1nc(-c2cc(-c3cncc(N4CCOCC4)c3)ccn2)[nH]c1C [Example 260]	PI3Kγ (p110γ) Recombinant Human Protein (Homo sapiens (Human), UniProt P48736)	≥ 6.30
Cc1nc(-c2cc(-c3cncc(C4=CCNC4)c3)ccn2)[nH]c1C [Example 236]	PI3Kγ (p110γ) Recombinant Human Protein (Homo sapiens (Human), UniProt P48736)	< 6.30
Cc1[nH]c(-c2cc(-c3cncc(N4CCOCC4)c3)ccn2)nc1CN[C@H]1CCOC1 [Example 286]	PI3Kγ (p110γ) Recombinant Human Protein (Homo sapiens (Human), UniProt P48736)	< 6.30
Cc1nc(-c2cc(-c3cncc(N4CCOCC4)c3)ccn2)[nH]c1C [Example 98, trifluoroacetate salt]	PI3Kγ (p110γ) Recombinant Human Protein (Homo sapiens (Human), UniProt P48736)	≥ 7.00
Cc1[nH]c(-c2cc(-c3cncc(N4CCOCC4)c3)ccn2)nc1C(=O)N[C@@H]1CCOC1 [Example 270, trifluoroacetate salt]	PI3Kγ (p110γ) Recombinant Human Protein (Homo sapiens (Human), UniProt P48736)	≥ 7.30
c1ccc(-c2cnc(-c3cc(-c4cnn(C5CCOC5)c4)ccn3)[nH]2)cc1 (racemic) [Example 60, trifluoroacetate salt]	PI3Kγ (p110γ) Recombinant Human Protein (Homo sapiens (Human), UniProt P48736)	≥ 6.30
CCOC(=O)Nc1cncc(-c2ccnc(-c3ncc(-c4ccccc4)[nH]3)c2)c1 [Example 140, Trifluoroacetate Salt]	PI3Kγ (p110γ) Recombinant Human Protein (Homo sapiens (Human), UniProt P48736)	≥ 7.00
Cc1nc(-c2cc(-c3cncc(C(=O)N4CCN(C(N)=O)CC4)c3)ccn2)[nH]c1C [Example 150]	PI3Kγ (p110γ) Recombinant Human Protein (Homo sapiens (Human), UniProt P48736)	≥ 6.30
Cc1[nH]c(-c2cc(-c3cncc(N4CCOCC4)c3)ccn2)nc1C(=O)N(C)C1CCOC1 (racemic) [Example 261]	PI3Kγ (p110γ) Recombinant Human Protein (Homo sapiens (Human), UniProt P48736)	≥ 6.30
CC(=O)N1CC=C(c2ccnc(-c3nc(C)c(C)[nH]3)c2)CC1 [Example 217, trifluoroacetate salt]	PI3Kγ (p110γ) Recombinant Human Protein (Homo sapiens (Human), UniProt P48736)	< 6.30
Cc1nc(-c2cc(-c3cncc(C(=O)N4CCC5(CC5)C4)c3)ccn2)[nH]c1C [Example 212, trifluoroacetate salt]	PI3Kγ (p110γ) Recombinant Human Protein (Homo sapiens (Human), UniProt P48736)	≥ 7.30
Cc1nc(-c2cc(-c3cncc(C(=O)N4C[C@H](CO)[C@@H](C)C4)c3)ccn2)[nH]c1C [Example 172, trifluoroacetate salt]	PI3Kγ (p110γ) Recombinant Human Protein (Homo sapiens (Human), UniProt P48736)	≥ 7.30
CS(=O)(=O)c1cncc(-c2ccnc(-c3ncc(C4CC4)[nH]3)c2)c1 [Example 112, trifluoroacetate salt]	PI3Kγ (p110γ) Recombinant Human Protein (Homo sapiens (Human), UniProt P48736)	≥ 7.30
CS(=O)(=O)c1cncc(-c2ccnc(-c3ncc(-c4ccccc4)[nH]3)c2)c1 [Example 40, trifluoroacetate salt]	PI3Kγ (p110γ) Recombinant Human Protein (Homo sapiens (Human), UniProt P48736)	≥ 7.30
Cc1nc(-c2cc(-c3cncc(C(=O)N4CCC(c5ccccc5)C4)c3)ccn2)[nH]c1C (racemic) [Example 181, trifluoroacetate salt]	PI3Kγ (p110γ) Recombinant Human Protein (Homo sapiens (Human), UniProt P48736)	≥ 7.00
Cc1[nH]c(-c2cc(-c3cncc(N4CCOCC4)c3)ccn2)nc1C(=O)N[C@H]1CCOC1 [Example 271, trifluoroacetate salt]	PI3Kγ (p110γ) Recombinant Human Protein (Homo sapiens (Human), UniProt P48736)	≥ 7.30
CC(=O)N1CCC(c2c[nH]c(-c3cc(-c4cnn(Cc5ccc(Cl)cc5)c4)ccn3)n2)C1 (stereo not shown) [Example 303, trifluoroacetate salt]	PI3Kγ (p110γ) Recombinant Human Protein (Homo sapiens (Human), UniProt P48736)	≥ 6.30
CS(=O)(=O)c1cncc(-c2ccnc(-c3ncc(Cc4ccccc4)[nH]3)c2)c1 [Example 115, trifluoroacetate salt]	PI3Kγ (p110γ) Recombinant Human Protein (Homo sapiens (Human), UniProt P48736)	≥ 7.30
Cc1[nH]c(-c2cc(-c3cncc(N4CCOCC4)c3)ccn2)nc1CN1CCOCC1 [Example 292]	PI3Kγ (p110γ) Recombinant Human Protein (Homo sapiens (Human), UniProt P48736)	≥ 6.30
Cc1nc(-c2cc(-c3cncc(C(=O)NCC4CCCC4)c3)ccn2)[nH]c1C [Example 207, trifluoroacetate salt]	PI3Kγ (p110γ) Recombinant Human Protein (Homo sapiens (Human), UniProt P48736)	≥ 7.30
CNC(=O)c1nc(-c2cc(-c3cncc(S(C)(=O)=O)c3)ccn2)[nH]c1C [Example 250, trifluoroacetate salt]	PI3Kγ (p110γ) Recombinant Human Protein (Homo sapiens (Human), UniProt P48736)	≥ 7.30
